Numbers sourced from patent US5190938A.

- Assayed System: human leucocyte elastase (Homo sapiens, UniProt P08246)
- Construct: human neutrophil elastase extracted from purulent sputum
- Sequence (P08246 30-247 limits assumed): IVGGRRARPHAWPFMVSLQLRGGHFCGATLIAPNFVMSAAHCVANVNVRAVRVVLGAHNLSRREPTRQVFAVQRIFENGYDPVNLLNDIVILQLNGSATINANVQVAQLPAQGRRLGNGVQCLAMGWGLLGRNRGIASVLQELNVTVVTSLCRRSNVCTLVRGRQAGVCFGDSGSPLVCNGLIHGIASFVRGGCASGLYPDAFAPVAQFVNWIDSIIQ
- Protocol Description: In vitro inhibition of elastase enzymatic activity (hydrolysis of Suc-Ala-Ala-Pro-LeupNA), Table II
- Measurement Setup: human leucocyte (neutrophil) elastase from purulent sputum; 25° C.; pH 8.8; concentration in the final solution
Entries and their IC50 values follow.
A number alone suffices; assume µM.

Molecule	Assayed System	IC50 / µM
CC(c1ccccc1)N1CCc2sc(OC(=O)C(C)(C)C)cc2C1 (racemic) [SR 27319]	human leucocyte elastase (Homo sapiens, UniProt P08246)	3.4
CC(C)(C)C(=O)Oc1cc2c(s1)CCN(Cc1ccccc1)C2 [SR 26827]	human leucocyte elastase (Homo sapiens, UniProt P08246)	3.4
COC(=O)C(c1ccccc1Cl)N1CCc2sc(OC(=O)C(C)C)cc2C1 (centres unmarked) [SR 26886]	human leucocyte elastase (Homo sapiens, UniProt P08246)	30
CC(C)(C)C(=O)Oc1cc2c(s1)C[N+]([O-])(Cc1ccccc1Cl)CC2 (centres unmarked) [SR 26998]	human leucocyte elastase (Homo sapiens, UniProt P08246)	2.2

The record that follows has no IC50 shown yet.
Task: Write IC50 of CCCC(=O)Oc1cc2c(s1)CC[N+]([O-])(Cc1ccccc1Cl)C2 (centres unmarked) [SR 26832] ; system used: human leucocyte elastase (Homo sapiens, UniProt P08246)
Output: 5.6

---

- Assayed System: human leucocyte elastase (Homo sapiens, UniProt P08246)
- Construct: human neutrophil elastase extracted from purulent sputum
- Protocol Description: In vitro inhibition of elastase enzymatic activity (hydrolysis of Suc-Ala-Ala-Pro-LeupNA), Table II
- Measurement Setup: human leucocyte (neutrophil) elastase from purulent sputum; 25° C.; pH 8.8; concentration in the final solution
- From the text: a) In vitro inhibition of elastase enzymatic activity. The variation of the rate of hydrolysis of a substrate specific of elastases was studied in the presence and absence of the test compound according to a conventional technique. […]
Overview of reported pIC50 across a group of compounds:
Conceptually, pIC50 converts a concentration in mol/L into minus its log10.

Compound	Assayed System	Obs Value
CCC[N+]1([O-])CCc2sc(OC(=O)C(C)(C)C)cc2C1 (centres unmarked) [SR 27325]	human leucocyte elastase (Homo sapiens, UniProt P08246)	6.15

Task: Tell me pIC50 reported for COc1ccc(CN2CCc3sc(OC(=O)C(C)(C)C)cc3C2)cc1 [SR 27261]
Output: 5.49

Task: State its pIC50 for this compound: CN1CCc2sc(OC(=O)C(C)(C)C)cc2C1 [SR 26984]
Output: 5.59

Task: Hello, please tell me recorded pIC50 for this one: CCCN1CCc2sc(OC(=O)C(C)(C)C)cc2C1 [SR 27318]
Output: 5.52

Task: Given the compound CC(C)(C)C(=O)Oc1cc2c(s1)CC[N+]([O-])(Cc1ccccc1)C2 (centres unmarked) [SR 26986] , write its reported pIC50.
Output: 5.64

---

- Assayed System: porcine pancreatic elastase (Sus scrofa)
- Sequence (P00772 27-266): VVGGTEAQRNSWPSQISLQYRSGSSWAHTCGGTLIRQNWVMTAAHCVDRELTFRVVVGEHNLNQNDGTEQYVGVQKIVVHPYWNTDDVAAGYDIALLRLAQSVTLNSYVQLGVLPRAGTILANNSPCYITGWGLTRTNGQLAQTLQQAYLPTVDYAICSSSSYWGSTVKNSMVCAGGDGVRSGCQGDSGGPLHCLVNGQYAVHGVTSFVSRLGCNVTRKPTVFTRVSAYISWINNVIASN
Could you please mark TRUE for values of IC50 below 4 µM and FALSE for values at or above it?

Reference set, count: 3
Compound	Class Assignment
CC(c1ccccc1)[N+]1([O-])CCc2sc(OC(=O)C(C)(C)C)cc2C1 (centres unmarked)	FALSE
CC(C)(C)C(=O)Oc1cc2c(s1)CC[N+]([O-])(Cc1ccc(Cl)cc1)C2 (centres unmarked)	TRUE
CN1CCc2sc(OC(=O)C(C)(C)C)cc2C1	TRUE

Now examine the next entry.
Task: Take the compound COc1ccc(CN2CCc3sc(OC(=O)C(C)(C)C)cc3C2)cc1 and say whether its IC50 is less than 4 µM.
Output: FALSE
